Molecular target: TPα (Homo sapiens)
Construct: expressed in transfected cells
Test: U46619-induced [Ca2+]i mobilization in HEK.TPα cells
Format: cell-based
Conditions: antagonist 1 μM, 1 μM U46619, mean ± S.E.M.
Calcium mobilization, Percentage of Control, TPα for assorted compounds
Output spec: scalar in %, unitless text.

Take a look at these entries with their results.
COc1ccc(-c2cccc(Oc3ccc(Cl)cc3S(=O)(=O)NC(=O)NC(C)(C)C)c2)cc1
52.2
COc1ccc(-c2cccc(Oc3ccc(C(F)(F)F)cc3S(=O)(=O)NC(=O)NC(C)(C)C)c2)cc1
69.6
COc1ccc(-c2cccc(Oc3ccc(S(C)(=O)=O)cc3S(=O)(=O)NC(=O)NC(C)(C)C)c2)cc1
81.1

Next, consider the following compound.
Task: Data request, read-out Calcium mobilization, Percentage of Control, TPα, for COc1ccc(-c2cccc(Oc3cc(C)c(C#N)cc3S(=O)(=O)NC(=O)NC(C)(C)C)c2)cc1
Output: 80.3

###

Molecular target: TPα (Homo sapiens, UniProt P21731)
Construct: expressed in transfected cells
Sequence (P21731 whole entry): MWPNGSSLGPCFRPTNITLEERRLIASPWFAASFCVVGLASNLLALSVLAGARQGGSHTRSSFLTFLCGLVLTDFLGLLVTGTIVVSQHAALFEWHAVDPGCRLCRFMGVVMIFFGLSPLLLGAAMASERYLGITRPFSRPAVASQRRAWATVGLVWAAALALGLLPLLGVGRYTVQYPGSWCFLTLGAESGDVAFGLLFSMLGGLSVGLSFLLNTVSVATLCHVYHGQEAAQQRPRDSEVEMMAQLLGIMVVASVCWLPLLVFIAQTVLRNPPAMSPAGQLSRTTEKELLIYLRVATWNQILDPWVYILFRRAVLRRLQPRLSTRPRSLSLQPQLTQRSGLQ
Assay: U46619-induced [Ca2+]i mobilization in HEK.TPα cells
Assay type: cell-based
Settings: antagonist 10 μM, 1 μM U46619, mean ± S.E.M.
observation-type: Calcium mobilization, Percentage of Control, TPα (%)
Output spec: scalar in %, unitless text.

COc1ccc(-c2cccc(Oc3ccc(Cl)cc3S(=O)(=O)NC(=O)NC(C)(C)C)c2)cc1
23.3
COc1ccc(-c2cccc(Oc3ccc(S(C)(=O)=O)cc3S(=O)(=O)NC(=O)NC(C)(C)C)c2)cc1
68.4
COc1ccc(-c2cccc(Oc3ccc(C(F)(F)F)cc3S(=O)(=O)NC(=O)NC(C)(C)C)c2)cc1
41.6

Next, consider the following molecule.
Task: Data request, read-out Calcium mobilization, Percentage of Control, TPα, for COc1ccc(-c2cccc(Oc3cc(C)c(C#N)cc3S(=O)(=O)NC(=O)NC(C)(C)C)c2)cc1
Output: 69.3

###

Biological target: TPβ (Homo sapiens)
Construct: expressed in transfected cells
Sequence (P21731 1-407 isoform P21731-2): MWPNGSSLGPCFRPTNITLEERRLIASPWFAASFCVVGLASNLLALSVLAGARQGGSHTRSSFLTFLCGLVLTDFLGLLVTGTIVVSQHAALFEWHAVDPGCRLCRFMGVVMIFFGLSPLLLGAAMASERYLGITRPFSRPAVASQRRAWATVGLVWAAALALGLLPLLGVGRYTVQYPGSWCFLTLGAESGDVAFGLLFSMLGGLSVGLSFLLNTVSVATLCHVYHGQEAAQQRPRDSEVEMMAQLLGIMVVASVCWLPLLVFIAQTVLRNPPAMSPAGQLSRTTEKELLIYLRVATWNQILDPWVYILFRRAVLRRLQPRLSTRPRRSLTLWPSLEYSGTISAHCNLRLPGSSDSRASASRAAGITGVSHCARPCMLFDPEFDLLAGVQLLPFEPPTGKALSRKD
Assay: U46619-induced [Ca2+]i mobilization in HEK.TPβ cells
Format: cell-based
Conditions: antagonist 10 μM; 1 μM U46619; HEK.TPβ; mean ± S.E.M.
observation-type: Calcium mobilization, Percentage of Control, TPβ (%)
Output spec: scalar in %, unitless text.

Take a look at these entries with their results.
COc1ccc(-c2cccc(Oc3cc(C)c(C#N)cc3S(=O)(=O)NC(=O)NC(C)(C)C)c2)cc1 [NTP32]
46.2
COc1ccc(-c2cccc(Oc3ccc(S(C)(=O)=O)cc3S(=O)(=O)NC(=O)NC(C)(C)C)c2)cc1 [NTP27]
16.3
COc1ccc(-c2cccc(Oc3ccc(Cl)cc3S(=O)(=O)NC(=O)NC(C)(C)C)c2)cc1 [NTP30]
9.31

Next, consider the following compound.
Task: Requested read-out Calcium mobilization, Percentage of Control, TPβ, target or system TPβ (Homo sapiens), entry COc1ccc(-c2cccc(Oc3ccc(C(F)(F)F)cc3S(=O)(=O)NC(=O)NC(C)(C)C)c2)cc1 [NTP3]
Output: 14.8
